- procedure_details: NCI Yeast Anticancer Drug Screen. Data for the mec2-1 strain (AID 157)
- condition_context: S. cerevisiae mec2-1 strain, at 50.0 µM
The panel holds about 79,000 compounds, 15% with a hit somewhere; the sample as a whole holds those more often. Active and inactive are the calls of the source. Rule as the data show it: active = growth inhibition above about 70%; inactive = the rest. Where a SMILES comes first, the peptide text is derived from it. Bridges are numbered along the chain shown (N, C = ends). Roman numbers before positions name the chains, in order. [ ]: non-standard residue; d: D form. The star is where a group is joined. Quinoxaline2carbonyl = O=C(c1cnc2ccccc2n1)*; NMeV = CN[CH](C(=O)O)C(C)C; NMeC = CN[CH](CS)C(=O)O
Pick one: 1 for active, 0 for inactive

Worked examples, 7 compounds total:
O=[N+]([O-])c1ccc(OCCOCCOc2ccc(S(=O)(=O)F)cc2)c(Cl)c1: 0
O=C(c1ccccc1)N1CC1: 0
CN1C(=O)N(C)C(O)C(Cl)(Cl)C1=O (stereo not drawn): 0
CC1=CC2OC3CC4OC(=O)/C=C/C=C/C(C(C)O)OCC/C(C)=C/C(=O)OCC2(CC1)C4(C)C31CO1 (stereo not drawn): 1
CN(C)CCNC(=O)c1ccc(N(CCCl)CCCl)c([N+](=O)[O-])c1[N+](=O)[O-]: 0
O=[As](c1ccccc1)(c1ccccc1)c1ccc(Br)cc1: 0
CC1NC(=O)C(NC(=O)c2cnc3ccccc3n2)COC(=O)C(C(C)C)N(C)C(=O)C2CSSCC(C(=O)N(C)C(C(C)C)C(=O)OCC(NC(=O)c3cnc4ccccc4n3)C(=O)NC(C)C(=O)N2C)N(C)C1=O (stereo not drawn) (I: Quinoxaline2carbonyl-SA[NMeC][NMeV] / II: Quinoxaline2carbonyl-SA[NMeC][NMeV]; ester I:1-II:C, I:C-II:1; disulfide I:3-II:3; configuration not given here): 1

Please indicate how the test categorized O=C(O)C(O)c1ccc(Cl)cc1 (stereo not drawn) . 0

----------
// reported growth inhibition for each item listed
- procedure_details: NCI Yeast Anticancer Drug Screen. Data for the mlh1 rad18 strain (AID 175)
- condition_context: S. cerevisiae mlh1 rad18 strain growth inhibition; at 50.0 µM; hits give high values
Compounds without any hit were thinned out: in the full panel of roughly 79,000, 15% have a hit.
Please respond with the number in % and leave the unit unwritten.

Example cases with answers are listed next.
c1cc[c]([Ge]([c]2ccccc2)[c]2ccccc2)cc1: 14.4
N.N.N.N.N.N.O=N[O-].[Br-].[Co+3].[Co+3].[OH3+].[OH3+]: -7.9
C=CCC1(O)CCC2C3CCC4=CC(=O)CCC4=C3C=CC21CC (centres undefined): 21.6
CC([NH-])C[NH-].CC([NH-])C[NH-].[Cl-].[Cl-].[Co+3].[O-][Cl+3]([O-])([O-])O (centres undefined): 1.6
CN1C2c3ccccc3C3C4c5ccccc5C(C31)C(C2[N+](=O)[O-])N4C (centres undefined): -13.5
C[N+]1(C)C2CCC1CC(OC(=O)C(CO)c1ccccc1)C2 (centres undefined): -5.95
CC(=O)Oc1cccc(C#N)c1: 5.05
Cc1cc(-n2c(/C=C/c3ccc(Cl)cc3)nc3cc(Cl)ccc3c2=O)on1: -10.8

For the next question, use this molecule.
Specify growth inhibition for O=C1C(F)=C(F)C(=O)C(F)=C1F and stop. -1.7
